These data points were gathered from ChEMBL document CHEMBL1152078.

Experiment: The compound was evaluated for bioavailability in rats; 32-51
Assay type: ADME, organism-based
Details: rat, in vivo; read-out: Bioavailabiility
reportedProperty: bioavailability (%)
Response body: numeric value in %, unit text excluded.

stdin: Dear colleague, I am looking for the recorded bioavailability of the following molecule: Cl.Cl.N=C(N)NCCCNC(=O)[C@@H]1CCCCN1C(=O)[C@@H](CC1CCCCC1)NCC(=O)O
stdout: 51

###

Assay: The compound was evaluated for bioavailability in dogs; 34-44
Format: ADME, organism-based, Canis lupus familiaris
Settings: dog, in vivo; read-out: Bioavailabiility
reportedProperty: bioavailability (%)
# output: bare number, implied unit %

stdin: I'd like to know its bioavailability. The compound in question is Cl.Cl.N=C(N)NCCCNC(=O)[C@@H]1CCCCN1C(=O)[C@@H](CC1CCCCC1)NCC(=O)O
stdout: 44
